Where do these numbers come from? They come from patent US8728749B2.

- TARGET UNDER TEST: rhLCAT (Homo sapiens, UniProt P04180)
- Construct: made in house; host or cells: HEK293f cells, stably transfected with pcDNA3.1/Hygro carrying the LCAT insert from Origene pCMV6-XL4/LCAT
- Sequence (P04180 25-440): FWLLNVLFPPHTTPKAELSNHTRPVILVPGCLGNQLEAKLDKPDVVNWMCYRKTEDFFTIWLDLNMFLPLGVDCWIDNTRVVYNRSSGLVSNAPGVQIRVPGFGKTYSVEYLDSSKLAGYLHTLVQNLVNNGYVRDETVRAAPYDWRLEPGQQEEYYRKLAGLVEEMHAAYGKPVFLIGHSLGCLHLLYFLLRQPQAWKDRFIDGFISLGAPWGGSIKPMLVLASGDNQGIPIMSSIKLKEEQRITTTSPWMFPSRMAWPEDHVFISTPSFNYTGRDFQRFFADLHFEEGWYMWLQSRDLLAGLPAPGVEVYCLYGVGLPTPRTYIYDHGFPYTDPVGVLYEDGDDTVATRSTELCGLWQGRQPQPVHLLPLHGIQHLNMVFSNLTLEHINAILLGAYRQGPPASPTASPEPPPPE
- ASSAY TEXT: LCAT activating potential of LCAT-activating peptides in mHDL substrate (DHE fluorescence / cholesterol oxidase assay)
- Type: biochemical
- ASSAY CONTEXT: specific activity of rhLCAT with peptide/POPC/DHE substrate, 50 μM DHE, relative to SEQ ID NO: 1
Lab note: class by RELATIVE ACTIVITY (Percent activity relative to SEQ ID: 1), see range 1 (below 30%), range 2 (30% to below 60%), range 3 (60% or more)

| SUBSTANCE | CAT |
| --- | --- |
| 9 (EWLKAFLEKVLEKLKELF) [compound 9] | range 2 |
| 10 (EWLKAFYEKVLEKLKELF) [compound 10] | range 2 |
| 3 (PSLDLFRELLNELLEALKQKLK) [compound 3] | range 3 |
| 2 (PTLDLFRELLNELLEALKQKLK) [compound 2] | range 3 |
| 5 (PTLDLFRELLNELLQKLKK) [compound 5] | range 3 |
| 7 (PVLDLFKELLEELFQKLKK) [compound 7] | range 2 |
| 11 (DWLKAFYDKVFEKFKEFF) [compound 11] | range 1 |
| 12 (EVLKNLLEKLLEKLKELF) [compound 12] | range 1 |
| 8 (PVLDKFLELLEELFQKLKK) [compound 8] | range 1 |
| 6 (PVLDLFRELLEELLQKLKK) [compound 6] | range 3 |
| 13 (DLWQRLLELFNELLEKLKQALK) [compound 13] | range 1 |
| 4 (PVLDLFRELLNELLQKLKK) [compound 4] | range 3 |
| 14 (DVFQALKELFAQLLEKWKQV) [compound 14] | range 1 |
